Every entry's value here was drawn from patent US4177269A.

Assay: Hepatome AH 130 tumour growth inhibition in rats
Format: in vivo, Sprague-Dawley rats
Settings: rat, in vivo, ip, one i.p. injection, read-out: T.I. (LD50/ED50)
Description: LD50 is the dose that causes a 50 percent lethality of the animals, and ED50 is the dose that causes a 50 percent reduction of tumour size. The experimental design and the interpretation of the results are in accordance with the standards set by the CCNSC (Cancer Chemotherpy Reports, January 1959 and December 1962). Experimental animals: Sprague-Dawley rats. Tumour implant: 5 × 10^6 tumour cells i.p. Therapy: One injection i.p. on the day following implanta- […]
ASSAY_ENDPOINT: selectivity ratio

Below: 2 compounds and their reported selectivity ratio.
CC(=O)[C@@]1(OC(=O)CCCOC(=O)Cc2ccc(N(CCCl)CCCl)cc2)CC[C@H]2[C@@H]3CCC4=CC(=O)CC[C@]4(C)[C@H]3CC[C@@]21C: 25
CC(=O)[C@@]1(OC(=O)CCCOC(=O)c2ccc(C)c(N(CCCl)CCCl)c2)CC[C@H]2[C@@H]3CCC4=CC(=O)CC[C@]4(C)[C@H]3CC[C@@]21C: > 15

Item CC(=O)[C@@]1(OC(=O)CNC(=O)CCCc2ccc(N(CCCl)CCCl)cc2)CC[C@H]2[C@@H]3CCC4=CC(=O)CC[C@]4(C)[C@H]3CC[C@@]21C has what recorded selectivity ratio?
> 2
